The entries below come with measured solubility kinetic values attached.
# conditions: buffer; pH 7.4; 200.0 µM

Some solved cases for reference:
Cc1cc([N+](=O)[O-])nn1CC(=O)NC1CCCCC1 : > 39.9 µg/mL
COc1cc(C2NC(=O)NC3=C2C(=O)OC3)cc(OC)c1OC (stereo not given) : > 48 µg/mL
Cc1cccnc1NC(=O)c1ccc2c(c1)OCCO2 : > 40.5 µg/mL
CC1CC(CC(=O)NNc2nc(-c3ccccc3)cs2)C(=O)O1 (stereo not given) : > 49.7 µg/mL
CCOC(=O)Cc1csc(NS(=O)(=O)c2ccc(C(F)(F)F)cc2)n1 : > 59.2 µg/mL

Now for another entry.
Problem: Need solubility kinetic, item COc1ccc(C2C(C(C)=O)=C(O)C(=O)N2c2ccc(C)cc2)cc1 (stereo not given)
Solution: > 50.6 µg/mL

The origin of these recorded values is PubChem BioAssay AID1996.
